Below, each of the molecules is paired with its reported IC50 value.
- assay_target: hα9 nAChRs (Homo sapiens, UniProt Q9UGM1)
- Construct: host or cells: Xenopus laevis oocytes, cRNA-injected
- Sequence (Q9UGM1 26-479 limits assumed): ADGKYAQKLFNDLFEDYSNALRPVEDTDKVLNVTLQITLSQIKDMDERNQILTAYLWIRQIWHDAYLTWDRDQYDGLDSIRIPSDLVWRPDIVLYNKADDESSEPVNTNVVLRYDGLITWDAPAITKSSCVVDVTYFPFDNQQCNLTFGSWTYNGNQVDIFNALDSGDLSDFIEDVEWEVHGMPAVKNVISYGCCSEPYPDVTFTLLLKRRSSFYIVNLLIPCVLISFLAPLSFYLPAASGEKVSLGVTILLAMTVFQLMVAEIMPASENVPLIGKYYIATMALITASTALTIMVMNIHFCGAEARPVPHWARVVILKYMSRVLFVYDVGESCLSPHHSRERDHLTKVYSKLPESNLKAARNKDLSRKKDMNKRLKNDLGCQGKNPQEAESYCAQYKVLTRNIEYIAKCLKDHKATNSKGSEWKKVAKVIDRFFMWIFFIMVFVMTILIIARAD
- protocol_details: Two-electrode voltage clamp, inhibition of ACh-evoked currents at hα9 nAChRs in Xenopus laevis oocytes
- Assay type: cell-based
- condition_description: 50 μM ACh, 5 min preincubation

>  <query_smiles>
C[N+](C)(CCOc1ccc(OCc2ccccc2)cc1)C1CCCCC1.[I-]

>  <IC50 (nM)>
171

$$$$
>  <query_smiles>
C[N+](C)(CCOc1ccc(COc2ccccc2)cc1)C1CCCCC1.[I-]

>  <IC50 (nM)>
26.2

$$$$
>  <query_smiles>
C[N+](C)(CCOc1ccc(CCc2ccccc2)cc1)C1CCCCC1.[I-]

>  <IC50 (nM)>
133

$$$$
